Please respond with reported pKi for every item in the list.
- Assay Target: Human recombinant MMP-9 (Homo sapiens, UniProt P14780)
- Construct: made in house; host or cells: MMP-9-transfected HT1080 cells (spent media)
- Sequence (P14780 107-707 limits assumed): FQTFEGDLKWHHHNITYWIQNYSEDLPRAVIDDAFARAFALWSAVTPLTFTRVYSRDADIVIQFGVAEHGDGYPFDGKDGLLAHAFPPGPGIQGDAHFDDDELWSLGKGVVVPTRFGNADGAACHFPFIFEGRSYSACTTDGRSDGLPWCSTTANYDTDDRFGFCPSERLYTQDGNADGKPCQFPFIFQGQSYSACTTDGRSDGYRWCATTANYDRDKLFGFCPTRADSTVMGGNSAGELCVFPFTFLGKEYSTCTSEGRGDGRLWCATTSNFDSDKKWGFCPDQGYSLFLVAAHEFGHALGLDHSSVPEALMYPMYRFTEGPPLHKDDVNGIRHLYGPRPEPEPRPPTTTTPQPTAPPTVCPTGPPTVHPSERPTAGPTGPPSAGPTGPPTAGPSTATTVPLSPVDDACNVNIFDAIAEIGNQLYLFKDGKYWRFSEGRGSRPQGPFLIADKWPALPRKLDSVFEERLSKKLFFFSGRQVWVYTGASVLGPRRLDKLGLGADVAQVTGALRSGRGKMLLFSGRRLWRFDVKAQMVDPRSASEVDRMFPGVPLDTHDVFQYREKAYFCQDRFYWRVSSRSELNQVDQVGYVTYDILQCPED
- Assay Details: In vitro MMP inhibition, Ki determination (fluorogenic substrate II)
- Assay type: biochemical
- Condition Context: value in parenthesis
Give bare numbers, as −log10 of the molar value.

Below are worked cases with known answers.
INSERT INTO assay_data (molecular_string, measured_number) VALUES
  ('O=C(NO)C1(S(=O)(=O)c2ccc(OCCc3cccc(-c4cccnc4)c3)cc2)CCOCC1', 6.83),
  ('COCCN1CCC(C(=O)NO)(S(=O)(=O)c2ccc(OCCCc3nnc(-c4ccccc4C(F)(F)F)o3)cc2)CC1', 6.51),
  ('O=C(NO)C1(S(=O)(=O)c2ccc(OCCCc3cccc(-c4cc(Cl)cc(Cl)c4)c3)cc2)CCOCC1', 5.03);

GET /values?readout=pKi&system=Human recombinant MMP-9 (Homo sapiens, UniProt P14780)&item= `Cc1ccc(-c2cccc(CCCOc3ccc(S(=O)(=O)C4(C(=O)NO)CCOCC4)cc3)c2)cc1C`
5.01

###

Please respond with reported pKi for every item in the list.
- Assay Target: Human recombinant MMP-1 (Homo sapiens, UniProt P03956)
- Construct: made in house; host or cells: MMP-1-transfected HT-1080 cells (spent media)
- Sequence (P03956 100-469): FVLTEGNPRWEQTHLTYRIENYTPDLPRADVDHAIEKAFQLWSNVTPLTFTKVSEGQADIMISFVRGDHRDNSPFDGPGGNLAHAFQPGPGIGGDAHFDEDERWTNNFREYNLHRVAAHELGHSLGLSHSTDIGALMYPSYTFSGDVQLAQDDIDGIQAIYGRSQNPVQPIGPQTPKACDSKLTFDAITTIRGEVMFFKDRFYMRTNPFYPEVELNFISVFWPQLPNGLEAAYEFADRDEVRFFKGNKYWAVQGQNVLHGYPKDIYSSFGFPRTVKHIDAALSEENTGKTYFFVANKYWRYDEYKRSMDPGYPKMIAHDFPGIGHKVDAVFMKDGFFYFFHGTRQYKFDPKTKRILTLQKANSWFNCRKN
- Assay Details: In vitro MMP inhibition, Ki determination (fluorogenic substrate II)
- Type: biochemical
- Condition Context: value in parenthesis
One number for each entry, as −log10 of the molar value.

INSERT INTO assay_data (compound, measured_number) VALUES
  ('O=C(CCCOc1ccc(S(=O)(=O)C2(C(=O)NO)CCOCC2)cc1)Nc1ccc(OC(F)(F)F)cc1 [Example 250]', 5.84);

Here's the next entry for you.
// pKi lookup, key: O=C(CCCc1ccc(S(=O)(=O)C2(C(=O)NO)CCOCC2)cc1)c1cccc(-c2ccccc2)c1 [Example 219]
5.25

###

- Assay Target: Human recombinant MMP-14 (Homo sapiens)
- Construct: The catalytic domain enzyme was expressed in E. coli inclusion bodies, solubilized in urea; made in house
- Assay Details: In vitro MMP inhibition, IC50 determination (fluorogenic substrate I)
- Assay type: biochemical
- Condition Context: value outside parentheses
Measurement Name: IC50

INSERT INTO assay_data (compound, measurement_name, result) VALUES
  ('NCc1ccc(OCCOc2ccc(S(=O)(=O)C3(C(=O)NO)CCOCC3)cc2)cc1 [Example 650]', 'IC50', '2.39 µM');

Batch: IC50 for all items listed.
1. O=C(NO)C1(S(=O)(=O)c2ccc(OCCCc3cccc(-c4ccc([N+](=O)[O-])cc4)c3)cc2)CCOCC1 [Example 626]
2. O=C(NO)C1(S(=O)(=O)c2ccc(OCCOCc3cccc(OC(F)(F)F)c3)cc2)CCOCC1 [Example 660]
3. O=C(Cc1ccsc1)NCCOc1ccc(S(=O)(=O)C2(C(=O)NO)CCOCC2)cc1 [Example 601]
4. O=C(NO)C1(S(=O)(=O)c2ccc(OCCCOCc3ccccn3)cc2)CCOCC1 [Example 519]
5. O=C(NO)C1(S(=O)(=O)c2ccc(OCCCc3cccc(-c4ccsc4)c3)cc2)CCOCC1 [Example 632]

> 10 µM
3.49 µM
2.06 µM
> 10 µM
> 10 µM

Batch: IC50 for all items listed.
1. CN(C(=O)CCCOc1ccc(S(=O)(=O)C2(C(=O)NO)CCOCC2)cc1)c1ccccc1 [Example 654]
2. O=C(CCCOc1ccc(S(=O)(=O)C2(C(=O)NO)CCOCC2)cc1)N1CC[C@@H](c2ccccc2)[C@@H](O)C1 [Example 652]

["> 10 µM", "> 10 µM"]

###

- Assay Target: Human recombinant MMP-9 (Homo sapiens)
- Construct: made in house; host or cells: MMP-9-transfected HT1080 cells (spent media)
- Assay Details: In vitro MMP inhibition, IC50 determination (fluorogenic substrate I)
- Assay type: biochemical
- Condition Context: value outside parentheses (Ki in parenthesis)
Please respond with reported IC50 for every item in the list.
Numbers only, in µM.

INSERT INTO assay_data (molecular_string, u, measured_number) VALUES
  ('O=C(CCCCOc1ccc(S(=O)(=O)C2(C(=O)NO)CCOCC2)cc1)c1cccc2ccccc12', 'µM', 2.17),
  ('N#Cc1ccc(N2CCN(CCCOc3ccc(S(=O)(=O)C4(C(=O)NO)CCOCC4)cc3)C2=O)cc1', 'µM', 0.139),
  ('O=C(CCCOc1ccc(S(=O)(=O)C2(C(=O)NO)CCOCC2)cc1)Cc1ccc(Cl)cc1', 'µM', 0.0029);

// IC50 lookup, key: `O=C(NO)C1(S(=O)(=O)c2ccc(OCCSc3nc4ccccc4o3)cc2)CCOCC1`
0.202

###

- Assay Target: Human recombinant MMP-9 (Homo sapiens, UniProt P14780)
- Construct: made in house; host or cells: MMP-9-transfected HT1080 cells (spent media)
- Assay Details: In vitro MMP inhibition, IC50 determination (fluorogenic substrate I)
- Type: biochemical
- Condition Context: value outside parentheses (Ki in parenthesis)
- Protocol: Several hydroxamates and salts thereof were analyzed in in vitro assays to determine their ability to inhibit the MMP cleavage of peptide substrates. Inhibition (Ki) and IC50 constants were calculated from the assayed hydroxamate-MMP interactions. […] The assays from which the IC50 determinations were made were performed as follows. […] The assayed hydroxamate samples were, incubated in Microfluorrm White Plates (Dynatech, Chantilly, VA) and analyzed on a Perkin Elmer L550 plate reader (Norwalk, Conn.). […]
Please respond with reported log10(IC50) for every item in the list.
Hello, just confirming the data are log10 of IC50 with units of nM.

Below are worked cases with known answers.
INSERT INTO assay_data (compound, assay_target, measurement_name, measured_number) VALUES
  ('COc1ccc(CCCOc2ccc(S(=O)(=O)C3(C(=O)NO)CCOCC3)cc2)cc1', 'Human recombinant MMP-9 (Homo sapiens, UniProt P14780)', 'log10(IC50)', 2.26),
  ('O=C(NO)C1(S(=O)(=O)c2ccc(OCCSc3nc4ccccc4s3)cc2)CCOCC1', 'Human recombinant MMP-9 (Homo sapiens, UniProt P14780)', 'log10(IC50)', 3.05),
  ('O=C(NO)C1(S(=O)(=O)c2ccc(OCCCSc3nc4ccc(Cl)cc4o3)cc2)CCOCC1', 'Human recombinant MMP-9 (Homo sapiens, UniProt P14780)', 'log10(IC50)', 1.69),
  ('COc1ccc(C(=O)C(C)CCOc2ccc(S(=O)(=O)C3(C(=O)NO)CCOCC3)cc2)cc1 (centres unmarked)', 'Human recombinant MMP-9 (Homo sapiens, UniProt P14780)', 'log10(IC50)', 2.27),
  ('COc1ccc(CCCOc2ccc(S(=O)(=O)C3(C(=O)NO)CCOCC3)cc2)cc1OC', 'Human recombinant MMP-9 (Homo sapiens, UniProt P14780)', 'log10(IC50)', 1.65);

// log10(IC50) lookup, key: `COc1ccc(OCCCOc2ccc(S(=O)(=O)C3(C(=O)NO)CCN(C4CC4)CC3)cc2)cc1`
0.73

###

Please respond with reported IC50 for every item in the list.
- Assay Target: Human recombinant MMP-9 (Homo sapiens, UniProt P14780)
- Construct: made in house; host or cells: MMP-9-transfected HT1080 cells (spent media)
- Assay Details: In vitro MMP inhibition, IC50 determination (fluorogenic substrate I)
- Type: biochemical
- Condition Context: value outside parentheses (Ki in parenthesis)
Numbers only, in µM.

Below are worked cases with known answers.
INSERT INTO results (compound, u, measured_number) VALUES
  ('COC(C)CCOc1ccc(S(=O)(=O)C2(C(=O)NO)CCOCC2)cc1 (centres unmarked)', 'µM', 0.04),
  ('COc1ccc(OCCCOc2ccc(S(=O)(=O)C3(C(=O)NO)CCOCC3)cc2)cc1', 'µM', 0.0122),
  ('O=C(CCCOc1ccc(S(=O)(=O)C2(C(=O)NO)CCOCC2)cc1)c1cccs1', 'µM', 0.0646),
  ('O=C(NO)C1(S(=O)(=O)c2ccc(OC3CCOCC3)cc2)CCOCC1', 'µM', 0.06);

Batch: IC50 for all items listed.
1. O=C(NO)C1(S(=O)(=O)c2ccc(OCCCS(=O)(=O)C3CCCCC3)cc2)CCOCC1
2. CCCCOCCCNc1ccc(S(=O)(=O)C2(C(=O)NO)CCOCC2)cc1

1. 0.448
2. 0.7

###

Please respond with reported log10 IC50 for every item in the list.
- Assay Target: Human recombinant MMP-2 (Homo sapiens)
- Construct: made in house; host or cells: MMP-2-transfected p2AHT2 cells
- Sequence (P08253 110-660): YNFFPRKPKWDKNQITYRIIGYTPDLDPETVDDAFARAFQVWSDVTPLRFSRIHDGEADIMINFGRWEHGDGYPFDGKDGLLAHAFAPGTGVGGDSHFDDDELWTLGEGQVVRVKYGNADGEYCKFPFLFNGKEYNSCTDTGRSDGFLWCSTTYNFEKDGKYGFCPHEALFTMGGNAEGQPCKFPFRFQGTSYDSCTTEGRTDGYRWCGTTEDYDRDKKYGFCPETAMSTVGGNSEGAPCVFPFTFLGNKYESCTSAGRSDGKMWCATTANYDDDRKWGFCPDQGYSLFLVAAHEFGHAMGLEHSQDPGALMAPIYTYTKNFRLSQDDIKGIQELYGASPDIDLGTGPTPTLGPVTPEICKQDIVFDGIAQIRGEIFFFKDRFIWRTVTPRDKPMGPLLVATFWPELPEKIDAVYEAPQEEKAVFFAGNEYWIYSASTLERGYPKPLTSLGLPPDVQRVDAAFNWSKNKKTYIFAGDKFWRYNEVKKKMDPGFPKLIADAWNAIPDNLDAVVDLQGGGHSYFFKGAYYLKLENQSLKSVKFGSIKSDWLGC
- Assay Details: In vitro MMP inhibition, IC50 determination (fluorogenic substrate I)
- Format: biochemical
- Condition Context: value outside parenthesis
Hello, just confirming the data are log10 of IC50 with units of µM.

Below are worked cases with known answers.
INSERT INTO measurements (compound, measurement_name, measured_number) VALUES
  ('O=C(NO)C1(S(=O)(=O)c2ccc(OCCCc3nc(-c4ccc(C(F)(F)F)cc4)no3)cc2)CCOCC1', 'log10 IC50', -0.63),
  ('COc1ccc(CCCCc2ccc(S(=O)(=O)C3(C(=O)NO)CCOCC3)cc2)cc1', 'log10 IC50', -4.00),
  ('O=C(NO)C1(S(=O)(=O)c2ccc(OCCCc3nc(-c4ccccc4)no3)cc2)CCOCC1', 'log10 IC50', -1.22),
  ('CC(C)c1ccc(-c2nnc(CCCOc3ccc(S(=O)(=O)C4(C(=O)NO)CCOCC4)cc3)o2)cc1', 'log10 IC50', -0.35),
  ('CCOc1ccc(-c2noc(CCCOc3ccc(S(=O)(=O)C4(C(=O)NO)CCN(C5CC5)CC4)cc3)n2)cc1', 'log10 IC50', -0.90);

Batch: log10 IC50 for all items listed.
1. CC1CC(C)CN(S(=O)(=O)CCCOc2ccc(S(=O)(=O)C3(C(=O)NO)CCOCC3)cc2)C1 (stereo not shown)
2. COc1ccc2sc(SCCOc3ccc(S(=O)(=O)C4(C(=O)NO)CCOCC4)cc3)nc2c1
3. Cc1ccccc1N1CC(=O)N(CCCOc2ccc(S(=O)(=O)C3(C(=O)NO)CCOCC3)cc2)C1=O
4. O=C(NO)C1(S(=O)(=O)c2ccc(OCCCc3ccnc(-c4ccccc4)c3)cc2)CCOCC1

1. -2.06
2. -1.36
3. -0.65
4. -1.88

Batch: log10 IC50 for all items listed.
1. COc1ccc(C(=O)CCCCOc2ccc(S(=O)(=O)C3(C(=O)NO)CCN(C4CC4)CC3)cc2)cc1
2. COC(=O)CCCOc1ccc(S(=O)(=O)C2(C(=O)NO)CCOCC2)cc1
3. O=C(NO)C1(S(=O)(=O)c2ccc(OCCCc3nc(-c4cc(F)ccc4F)no3)cc2)CCOCC1

[-2.46, -1.81, -1.58]

Batch: log10 IC50 for all items listed.
1. CCCCc1ccc(N2CCN(CCCOc3ccc(S(=O)(=O)C4(C(=O)NO)CCOCC4)cc3)C2=O)cc1
2. CC(C)C[C@@H]1C(=O)N(CCCOc2ccc(S(=O)(=O)C3(C(=O)NO)CCOCC3)cc2)C(=O)N1c1ccccc1
3. COc1ccc2cc(C(=O)CCCCOc3ccc(S(=O)(=O)C4(C(=O)NO)CCN(C5CC5)CC4)cc3)ccc2c1
4. O=C1Nc2ccc(-c3noc(CCCOc4ccc(S(=O)(=O)C5(C(=O)NO)CCN(C6CC6)CC5)cc4)n3)cc21
5. CCOc1ccc2nc(SCCCOc3ccc(S(=O)(=O)C4(C(=O)NO)CCOCC4)cc3)sc2c1
6. O=C(NO)C1(S(=O)(=O)c2ccc(OCCCc3cccc(Br)c3)cc2)CCOCC1
7. O=C1CN(c2ccc(OC(F)(F)F)cc2)C(=O)N1CCCOc1ccc(S(=O)(=O)C2(C(=O)NO)CCOCC2)cc1
8. C[C@@H]1C(=O)N(CCCOc2ccc(S(=O)(=O)C3(C(=O)NO)CCOCC3)cc2)C(=O)N1c1ccccc1

1: 0.10; 2: 0.14; 3: -1.40; 4: -1.23; 5: -2.44; 6: -1.96; 7: -0.62; 8: -0.09
